Assay: Cell Viability - SK-N-SH (AID 435);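 note: compound exposure lasted 40 h at 37 °C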
Details: SK-N-SH neuroblastoma cell viability qHTS
Description: NIH Chemical Genomics Center [NCGC] NIH Molecular Libraries Screening Centers Network [MLSCN] National Institutes of Environmental Health Sciences [NIEHS] National Toxicology Program [NTP] We have developed a 1536-well cell-based assay for quantitative high throughput screening (qHTS) against a number of cell lines to determine in vitro cytotoxicity of small molecules. […] 8. Detection; Luminescence; Viewlux plate reader […]
Inconclusive results are not listed. Activity calls are given as the source filed them. Calls come from the whole dose curve.
Just give me one of these, please: T for active, F for inactive

Take a look at these entries with their results.
{"columns": ["compound", "class.label"],
 "data": [
  ["c1cc2c3c(c1)ccc1cccc(c13)C2", "F"],
  ["CN(C)c1ccc(Cc2ccc(N(C)C)cc2)cc1", "F"],
  ["c1ccc(COCc2ccccc2)cc1", "F"],
  ["c1ccc(SCCSc2ccccc2)cc1", "F"],
  ["COc1ccc(C)cc1N", "F"],
  ["c1c[nH]cn1", "F"]
]}

Request: Name the outcome recorded for "CCCCNCC" in the assay.
Result: F

Request: And the next one, "CC(CCC(=O)O)(c1ccc(O)cc1)c1ccc(O)cc1" ?
Result: F

Request: And the next one, "c1ccc(Nc2cccc3ccccc23)cc1" ?
Result: F

Request: And the next one, "c1ccncc1" ?
Result: F

Request: And the next one, "C[Si](C)(C)Cl" ?
Result: F

Request: And the next one, CCCCCCCCC1CO1 (stereo unspecified) ?
Result: F
